conditions: 308.15 K; 101 kPa; Liquid; Capillary tube (Ostwald / Ubbelohde) method
Below: a set of entries, each annotated with reported log10 viscosity.
measurement.label: log10 viscosity (log10 of the value in mPa·s)

1. CCCCO    0.30
2. CO    -0.30
3. CCO    -0.04
4. CCC(=O)[O-].CC[NH+]1CCNCC1 [N-ethylpiperazinium propionate]    2.05
5. CCCO    0.19

###

details: 303.15 K; 101 kPa; Liquid
Below: a set of entries, each annotated with reported mass density.
measurement.label: mass density (kg/m3)

1) CCCCO    801.996
2) CCC(=O)[O-].CC[NH+]1CCNCC1 [N-ethylpiperazinium propionate]    1004.38
3) CCO    781.197
4) CO    781.993
5) CCCO    795.543

###

conditions: 298.15 K; 101 kPa; Liquid
Below: a set of entries, each annotated with reported mass density.
measurement.label: mass density (kg/m3)

1. CO    786.686
2. CCCO    799.557
3. CCC(=O)[O-].CC[NH+]1CCNCC1 [N-ethylpiperazinium propionate]    1008.36
4. CCO    785.499
5. CCCCO    805.814

###

settings: 298.15 K; 101 kPa; Liquid; Capillary tube (Ostwald / Ubbelohde) method
measurement.label: viscosity (mPa·s)

1. CCC(=O)[O-].CC[NH+]1CCNCC1 [N-ethylpiperazinium propionate]    243.49
2. CO    0.558
3. CCO    1.091
4. CCCCO    2.577
5. CCCO    1.941

###

conditions: 308.15 K; 101 kPa; Liquid
Below: a set of entries, each annotated with reported mass density.
measurement.label: mass density (kg/m3)

1) CCCCO    798.13
2) CCCO    791.479
3) CCC(=O)[O-].CC[NH+]1CCNCC1 [N-ethylpiperazinium propionate]    1000.33
4) CCO    776.853
5) CO    777.249

###

Below: a set of entries, each annotated with reported log10 of viscosity.
conditions: 303.15 K; 101 kPa; Liquid; Capillary tube (Ostwald / Ubbelohde) method
measurement.label: log10 of viscosity (log10 of the value in mPa·s)

1) CCCO    0.24
2) CCC(=O)[O-].CC[NH+]1CCNCC1 [N-ethylpiperazinium propionate]    2.22
3) CCCCO    0.36
4) CO    -0.28
5) CCO    0.00

###

conditions: 313.15 K; 101 kPa; Liquid
API: label(entry) gives Yes if the entry's mass density is strictly smaller than 800 kg/m3; on equality or larger values it gives No.

1. CCC(=O)[O-].CC[NH+]1CCNCC1 [N-ethylpiperazinium propionate]    No
2. CCO    Yes
3. CO    Yes

###

details: 313.15 K; 101 kPa; Liquid; Capillary tube (Ostwald / Ubbelohde) method
# if value of viscosity reaches 1 mPa·s, tag Y; if it stays below, tag N

1) CCC(=O)[O-].CC[NH+]1CCNCC1 [N-ethylpiperazinium propionate]    Y
2) CCO    N
3) CCCCO    Y
4) CO    N
5) CCCO    Y
